tested-system: MMP2 (Homo sapiens)
Sequence (P08253 110-660): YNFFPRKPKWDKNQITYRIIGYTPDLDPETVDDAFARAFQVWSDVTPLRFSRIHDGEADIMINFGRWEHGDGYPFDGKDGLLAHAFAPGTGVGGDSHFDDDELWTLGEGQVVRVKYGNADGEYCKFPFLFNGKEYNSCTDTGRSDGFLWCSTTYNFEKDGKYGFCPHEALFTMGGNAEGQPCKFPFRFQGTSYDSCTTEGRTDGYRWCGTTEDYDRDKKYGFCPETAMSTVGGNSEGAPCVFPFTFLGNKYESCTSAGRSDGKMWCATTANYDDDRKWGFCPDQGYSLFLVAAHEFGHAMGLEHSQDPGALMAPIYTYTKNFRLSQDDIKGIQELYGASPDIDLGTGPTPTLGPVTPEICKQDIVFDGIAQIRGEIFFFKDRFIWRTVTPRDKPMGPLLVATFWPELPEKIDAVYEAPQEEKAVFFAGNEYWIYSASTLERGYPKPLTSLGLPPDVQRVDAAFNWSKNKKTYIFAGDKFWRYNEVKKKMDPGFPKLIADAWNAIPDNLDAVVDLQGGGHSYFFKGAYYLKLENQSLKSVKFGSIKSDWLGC
assay-notes: Inhibitory effects on human MMP2 (Method 1), enzyme assay with MOCAc-Pro-Leu-Gly-Leu-A2pr(Dnp)-Ala-Arg-NH2 substrate, 96-well
Assay type: biochemical
reported-conditions: Test Example No. 1-1 (Method 1, 96-well microplate); read-out: Human MMP2, IC50
*1 amine or outer side, *2 acyl side, *3 side chain or, on linkers, in order; H or OH if unused. Where a SMILES comes first, the peptide text is derived from it. [ ]: non-standard residue; d: D form. The star is where a group is joined. Benzoyl(4-O-C6H4-4-CONHMe) = CNC(=O)c1ccc(Oc2ccc(C(=O)*)cc2)cc1; X2 = CCOc1ccc(C(=O)Nc2ccc(S(=O)(=O)*)cc2)cc1; Benzoyl(4-OPh) = O=C(c1ccc(Oc2ccccc2)cc1)*; d(γGlu) = O=C(O)[C@@H](CCC(=O)[*:2])N[*:1]; X13 = Cc1ccc(C#Cc2ccc(S(=O)(=O)*)s2)cc1; NMeI = CC[C@H](C)[C@H](NC)C(=O)O; NMeE = CN[C@@H](CCC(=O)O)C(=O)O; NMeN = CN[C@@H](CC(N)=O)C(=O)O; NMeV = CN[C@H](C(=O)O)C(C)C; β3hP = O=C(O)C[C@@H]1CCCN1; Dab = NCC[C@H](N)C(=O)O; Ava = NCCCCC(=O)O; GABA = NCCCC(=O)O; βAla = NCCC(=O)O
Listing: IC50 of selected compounds
assay-metric: IC50 (nM)

[[record]]
compound = "CCOc1ccc(C(=O)Nc2ccc(S(=O)(=O)N[C@H](CCC(=O)N[C@@H](CCN)C(=O)N[C@@H](CC(C)C)C(=O)N(C)[C@H](C(=O)N3CCC[C@H]3CC(N)=O)[C@@H](C)CC)C(=O)O)cc2)cc1 [Compound 698] ({X2-d(γGlu)}-[Dab]L[NMeI][β3hP]-NH2; N-terminus assumed)"
scale_unit = "nM"
test_value = 0.31

[[record]]
compound = "CC[C@H](C)[C@@H](C(=O)N1CCC[C@H]1C(N)=O)N(C)C(=O)[C@H](CC(C)C)NC(=O)[C@H](CCN)NC(=O)[C@H](CC(=O)O)NC(=O)[C@H](CC(N)=O)N(C)C(=O)CCCNC(=O)c1ccc(Oc2ccccc2)cc1 [Compound 111] ({Benzoyl(4-OPh)-GABA}-[NMeN]D[Dab]L[NMeI]P-NH2; N-terminus assumed)"
scale_unit = "nM"
test_value = 0.96

[[record]]
compound = "Cc1ccc(C#Cc2ccc(S(=O)(=O)NCCC(=O)N[C@@H](CC(N)=O)C(=O)N[C@@H](CC(=O)O)C(=O)N[C@@H](C)C(=O)N[C@@H](CC(C)C)C(=O)N(C)[C@H](C(=O)N3CCC[C@H]3C(N)=O)C(C)C)s2)cc1 [Compound 589] ({X13-βAla}-NDAL[NMeV]P-NH2; N-terminus assumed)"
scale_unit = "nM"
test_value = 0.12

[[record]]
compound = "CCOc1ccc(C(=O)Nc2ccc(S(=O)(=O)N[C@H](CCC(=O)N[C@@H](CCN)C(=O)N[C@@H](CC(C)C)C(=O)N(C)[C@@H](CCC(=O)O)C(=O)N3CCC[C@H]3CC(N)=O)C(=O)O)cc2)cc1 [Compound 702] ({X2-d(γGlu)}-[Dab]L[NMeE][β3hP]-NH2; N-terminus assumed)"
scale_unit = "nM"
test_value = 0.25

[[record]]
compound = "CC[C@H](C)[C@@H](C(=O)N1CCC[C@H]1C(N)=O)N(C)C(=O)[C@H](CC(C)C)NC(=O)[C@H](CCN)NC(=O)[C@H](CC(=O)O)NC(=O)[C@H](C(C)C)N(C)C(=O)CCCNC(=O)c1ccc(Oc2ccccc2)cc1 [Compound 135] ({Benzoyl(4-OPh)-GABA}-[NMeV]D[Dab]L[NMeI]P-NH2; N-terminus assumed)"
scale_unit = "nM"
test_value = 9.3

[[record]]
compound = "CNC(=O)c1ccc(Oc2ccc(C(=O)NCCCCC(=O)N[C@@H](CCCCN)C(=O)N[C@@H](CC(=O)O)C(=O)N[C@@H](CCN)C(=O)N[C@@H](CC(C)C)C(=O)N(C)[C@@H](CCC(=O)O)C(=O)N3CCC[C@H]3CC(N)=O)cc2)cc1 [Compound 184] ({Benzoyl(4-O-C6H4-4-CONHMe)-Ava}-KD[Dab]L[NMeE][β3hP]-NH2; N-terminus assumed)"
scale_unit = "nM"
test_value = 0.61

